# Test system: S1507-2
# PROCEDURE_SUMMARY: drug sensitivity score (DSS, CellTiter-Glo viability, 72 h) (DSS (dimensionless)); higher = more sensitive; extreme values may be limits of the assay
RECORDED_ENDPOINT: drug sensitivity score
// no unit, no text: just the number

Query: What value of drug sensitivity score has been recorded for this entry: CC(=O)O[C@H]1C(=O)[C@@]2(C)[C@H]([C@H](OC(=O)c3ccccc3)[C@]3(O)C[C@H](OC(=O)[C@H](O)[C@@H](NC(=O)c4ccccc4)c4ccccc4)C(C)=C1C3(C)C)[C@]1(OC(C)=O)CO[C@@H]1C[C@@H]2O [Paclitaxel] (max concentration tested 1000 nM)
Reply: 17.3

Query: Do the same for COC1=CC(c2cc3ccccc3[nH]2)=N/C1=C\c1[nH]c(C)cc1C [Obatoclax] (max concentration tested 10000 nM) please
Reply: 7.89

Query: And what about the compound CC(C)C[C@H](NC(=O)[C@@H](COC(C)(C)C)NC(=O)[C@H](Cc1ccc(O)cc1)NC(=O)[C@H](CO)NC(=O)[C@H](Cc1c[nH]c2ccccc12)NC(=O)[C@H](Cc1cnc[nH]1)NC(=O)[C@@H]1CCC(=O)N1)C(=O)N[C@@H](CCCNC(=N)N)C(=O)N1CCC[C@H]1C(=O)NNC(N)=O [Goserelin] (max concentration tested 10000 nM) ?
Reply: 0

Query: Queued: N#Cc1ccc(COC[C@H]2O[C@@H](n3c(NCc4ccc(Cl)c(Cl)c4)nc4c(N)ncnc43)[C@H](O)[C@@H]2O)cc1 (max concentration tested 10000 nM)
Reply: 0

---

# System: S1507-2
# PROCEDURE_SUMMARY: % inhibition of CellTiter-Glo viability at highest tested concentration (72 h), relative to DMSO and benzethonium chloride controls; higher = more inhibition
RECORDED_ENDPOINT: % inhibition
Entry format: amount then unit.

Query: Which % inhibition value is on record for CNC(=O)c1ccc(N2C(=S)N(c3ccc(C#N)c(C(F)(F)F)c3)C(=O)C23CCC3)cc1F [RD162] (max concentration tested 10000 nM) ?
Reply: 10.7%

Query: Can you check C[C@@]1(C(=O)Nc2ccc(F)nc2)CCCN1c1nc(Nc2cc(C3CC3)n[nH]2)c2cccn2n1 (max concentration tested 10000 nM) next?
Reply: 99.4%

Query: What do we get for N#Cc1ccc(C(c2ccc(C#N)cc2)n2cncn2)cc1 [Letrozole] (max concentration tested 10000 nM) ?
Reply: -4.25%

Query: One more compound: Cc1cccc(-c2nn3c(c2-c2ccnc4ccc(C(N)=O)cc24)CCC3)n1 [Galunisertib] (max concentration tested 1000 nM)
Reply: 9.64%

Query: // same read-out, input: CN(C)c1nc(N(C)C)nc(N(C)C)n1 [Altretamine] (max concentration tested 10000 nM)
Reply: -7.42%

Query: Continue with CC1=C(/C=C/C(C)=C/C=C/C(C)=C/C(=O)O)C(C)(C)CCC1 [Tretinoin] (max concentration tested 10000 nM)
Reply: 22.8%

Query: Do the same for Cc1cc(C(C)Nc2ccccc2)c2nc(N3CCOCC3)cc(=O)n2c1 (stereo not given) [TGX-221] (max concentration tested 10000 nM) please
Reply: 28.4%

Query: # iterate: CN(Cc1cnc2nc(N)nc(N)c2n1)c1ccc(C(=O)N[C@@H](CCC(=O)O)C(=O)O)cc1 [Methotrexate] (max concentration tested 5000 nM)
Reply: -2.04%

Query: Now try NC(=O)c1ccc(I)c([N+](=O)[O-])c1 [Iniparib] (max concentration tested 10000 nM) .
Reply: 9.46%

Query: Same thing, different compound: CNC(=O)c1cc(Oc2ccc(NC(=O)Nc3ccc(Cl)c(C(F)(F)F)c3)c(F)c2)ccn1 [Regorafenib] (max concentration tested 10000 nM)
Reply: 33.7%

---

# System: YST-1
# PROCEDURE_SUMMARY: % inhibition of CellTiter-Glo viability at highest tested concentration (72 h), relative to DMSO and benzethonium chloride controls; higher = more inhibition
# % inhibition annotations
Supply the numeric figure in %, leaving out any unit text.

COCC(=O)NC/C=C/c1ccc2ncnc(Nc3ccc(Oc4ccc(C)nc4)c(C)c3)c2c1 (max concentration tested 10000 nM) | 19.9

Now for another entry.
Query: So what does the record say about % inhibition for CC[C@]1(O)C[C@@H]2CN(CCc3c([nH]c4ccccc34)[C@@](C(=O)OC)(c3cc4c(cc3OC)N(C)[C@H]3[C@@](O)(C(=O)OC)[C@H](OC(C)=O)[C@]5(CC)C=CCN6CC[C@]43[C@@H]65)C2)C1 [Vinblastine] (max concentration tested 1000 nM) ?
Reply: 83.8

---

# System: HS-Sch-2
# PROCEDURE_SUMMARY: drug sensitivity score (DSS, CellTiter-Glo viability, 72 h) (DSS (dimensionless)); higher = more sensitive; extreme values may be limits of the assay
RECORDED_ENDPOINT: drug sensitivity score
Number only, no unit.

The cases that follow already have their drug sensitivity score on record.
Cn1c(CCCC(=O)O)nc2cc(N(CCCl)CCCl)ccc21 [Bendamustine] (max concentration tested 10000 nM) | 0
Cc1nc(NC(=O)N2CCC[C@H]2C(N)=O)sc1-c1ccnc(C(C)(C)C(F)(F)F)c1 [Alpelisib] (max concentration tested 2500 nM) | 1.18

Query: Report drug sensitivity score for N#Cc1c(Oc2ccc(F)c(NC(=O)Cc3cccc(C(F)(F)F)c3)c2)ccc2nc(NC(=O)C3CC3)sc12 [TAK-632] (max concentration tested 10000 nM) please.
Reply: 1.14

---

# Tested on: HSC2 (primary human Schwann cells)
# PROCEDURE_SUMMARY: % inhibition of CellTiter-Glo viability at highest tested concentration (72 h), relative to DMSO and benzethonium chloride controls; higher = more inhibition
RECORDED_ENDPOINT: % inhibition (%)
I only need the number, in %, no unit after it.

Field: example entries. Status: answers known.
CN(C)C/C=C/C(=O)Nc1cc2c(Nc3ccc(F)c(Cl)c3)ncnc2cc1O[C@H]1CCOC1 [Afatinib] (max concentration tested 1000 nM) | 3.38
Cc1cccc(-c2nn3c(c2-c2ccnc4ccc(C(N)=O)cc24)CCC3)n1 [Galunisertib] (max concentration tested 1000 nM) | 10.8
CCc1c2c(nc3ccc(OC(=O)N4CCC(N5CCCCC5)CC4)cc13)-c1cc3c(c(=O)n1C2)COC(=O)[C@]3(O)CC [Irinotecan] (max concentration tested 10000 nM) | 72.5
CCN1CCN(c2ccc(Nc3cc(N(C)C(=O)Nc4c(Cl)c(OC)cc(OC)c4Cl)ncn3)cc2)CC1 [NVP-BGJ398] (max concentration tested 1000 nM) | 5.81
N[C@@H](CSC(c1ccccc1)(c1ccccc1)c1ccccc1)C(=O)O [S-trityl-L-cysteine] (max concentration tested 40000 nM) | -1.33
CNC(=O)c1ccc(N2C(=S)N(c3cnc(C#N)c(C(F)(F)F)c3)C(=O)C23CCC3)cc1F [ARN 509] (max concentration tested 10000 nM) | -11.5
CN(c1ccccc1CNc1nc(Nc2ccc3c(c2)CC(=O)N3)ncc1C(F)(F)F)S(C)(=O)=O (max concentration tested 10000 nM) | 84
CN1CCN(c2nc(C3=C(c4c[nH]c5ccccc45)C(=O)NC3=O)c3ccccc3n2)CC1 [Sotrastaurin] (max concentration tested 10000 nM) | -36.1

Query: Can you look up the measured % inhibition of CC[C@]1(O)C[C@H]2CN(CCc3c([nH]c4ccccc34)[C@@](C(=O)OC)(c3cc4c(cc3OC)N(C=O)[C@H]3[C@@](O)(C(=O)OC)[C@H](OC(C)=O)[C@]5(CC)C=CCN6CC[C@]43[C@@H]65)C2)C1 [Vincristine] (max concentration tested 1000 nM) for me?
Reply: 90.7

Query: Now consider CCC1(c2ccc(N)cc2)CCC(=O)NC1=O (stereo unspecified) [Aminoglutethimide] (max concentration tested 10000 nM) .
Reply: -6.11

Query: CS(=O)(=O)OCCCCOS(C)(=O)=O [Busulfan] (max concentration tested 100000 nM) , same question.
Reply: -3.16

---

# reported % inhibition; entries follow
# Tested on: ST8814
# PROCEDURE_SUMMARY: % inhibition of CellTiter-Glo viability at highest tested concentration (72 h), relative to DMSO and benzethonium chloride controls; higher = more inhibition
I only need the number, in %, no unit after it.

# annotated cases, reported % inhibition shown
N#CCNC(=O)c1ccc(-c2ccnc(Nc3ccc(N4CCOCC4)cc3)n2)cc1 [Momelotinib] (max concentration tested 10000 nM) | 41.6
CC[C@@H]1C(=O)N(C)c2cnc(Nc3ccc(C(=O)NC4CCN(C)CC4)cc3OC)nc2N1C1CCCC1 [BI 2536] (max concentration tested 1000 nM) | 84.1

Now for the compound whose % inhibition we want.
Query: Suppose we examine the compound Nc1nc(NC2CC2)cc(-c2cccc(Cl)c2Cl)n1 [TH588] (max concentration tested 25000 nM) ; what % inhibition value has been reported?
Reply: 100
